# MEASURED_ON: (NANP)6 (Plasmodium falciparum)
# TEST_PROTOCOL: BLI, target on sensor
ATTRIBUTE_MEASURED: Kd (nM)
Provide the reading as a plain figure in nM.

AB-007048 (antibody, V domains shown) VH: QMQLVESGGGVVQPGRSLRLSCTASGFTFSTYSMHWVRQSPGQGLQWVAVISYHSTNKYYEDSVRGRFTISRDNSKNTLYLQMNSLRAEDTAVYYCARDGYSSSFFDFWGQGTLVTVSS VL: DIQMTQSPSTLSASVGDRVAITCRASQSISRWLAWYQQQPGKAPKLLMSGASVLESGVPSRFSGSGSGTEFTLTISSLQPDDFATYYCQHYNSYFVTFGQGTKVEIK :: 1.46

query: For AB-007053 (antibody, V domains shown) VH: QMQLVESGGGVVQPGRSLRLSCTASGFTFSTYAMHWVRQSPGQGLQWVAVISYHSTQKYYEDSVRGRFTISRDNSKNTLYLQMNSLRAEDTAVYYCARDGYSSSFFDFWGQGTLVTVSS VL: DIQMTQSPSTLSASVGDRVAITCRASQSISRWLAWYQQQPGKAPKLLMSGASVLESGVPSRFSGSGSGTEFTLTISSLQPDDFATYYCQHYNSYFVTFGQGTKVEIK , what is its reported Kd?
result: 1.37

query: Also, AB-007068 (antibody, V domains shown) VH: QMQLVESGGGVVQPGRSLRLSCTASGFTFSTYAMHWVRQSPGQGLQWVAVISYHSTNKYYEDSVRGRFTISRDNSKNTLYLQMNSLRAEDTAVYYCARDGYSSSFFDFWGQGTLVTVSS VL: DIQMTQSPSTLSASVGDRVAITCRASQSISRWLAWYQQQPGKAPKLLMSLASVLESGVPSRFSGSGSGTEFTLTISSLQPDDFATYYCQHYNSYFVTFGQGTKVEIK please.
result: 1.59

query: And AB-007050 (antibody, V domains shown) VH: QMQLVESGGGVVQPGRSLRLSCTASGFTFSTYAMHWVRQSPGQGLQWVAVISQHSTNKYYEDSVRGRFTISRDNSKNTLYLQMNSLRAEDTAVYYCARDGYSSSFFDFWGQGTLVTVSS VL: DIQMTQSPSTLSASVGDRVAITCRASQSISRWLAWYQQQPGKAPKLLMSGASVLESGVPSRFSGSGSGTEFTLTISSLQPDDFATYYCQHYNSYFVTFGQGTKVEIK ?
result: 0.856

query: Please do the same for AB-007060 (antibody, V domains shown) VH: QMQLVESGGGVVQPGRSLRLSCTASGFTFSTYAMHWVRQSPGQGLQWVAVISYHSTNKYYEDSVRGRFTISRDNSKNTLYLQMNSLRAEDTAVYYCARDGYSSSYFDFWGQGTLVTVSS VL: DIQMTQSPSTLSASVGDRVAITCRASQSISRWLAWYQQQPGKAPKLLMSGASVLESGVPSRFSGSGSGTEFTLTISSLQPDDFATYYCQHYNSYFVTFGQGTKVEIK as well.
result: 0.898
